Numbers sourced from patent US5710145A.

- Procedure text: physchem
- Type: physicochemical
- Details: saturated aqueous solution
- Method: The aqueous solubility of each salt was determined by UV analysis (Table II) and compared. […] The high pH observed with the succinate and acetate salt indicated the presence of untitrated free base.
Counter-ions that a name gives are not always drawn.
This section presents compounds with their documented pH (saturated aq Solution) values.
Reported endpoint: pH (saturated aq Solution)

1. CN(C)C[C@@H]1CCn2cc(c3ccccc32)C2=C(C(=O)NC2=O)c2cn(c3ccccc23)CCO1 [Tartrate] ... 3.77
2. CN(C)C[C@@H]1CCn2cc(c3ccccc32)C2=C(C(=O)NC2=O)c2cn(c3ccccc23)CCO1 [HCl] ... 4.98
3. CN(C)C[C@@H]1CCn2cc(c3ccccc32)C2=C(C(=O)NC2=O)c2cn(c3ccccc23)CCO1 [Phosphate] ... 3.78
4. CN(C)C[C@@H]1CCn2cc(c3ccccc32)C2=C(C(=O)NC2=O)c2cn(c3ccccc23)CCO1 [Mesylate] ... 4.69
5. CN(C)C[C@@H]1CCn2cc(c3ccccc32)C2=C(C(=O)NC2=O)c2cn(c3ccccc23)CCO1 [Sulfate] ... 2.57
6. CN(C)C[C@@H]1CCn2cc(c3ccccc32)C2=C(C(=O)NC2=O)c2cn(c3ccccc23)CCO1 [Acetate] ... 7.80
7. CN(C)C[C@@H]1CCn2cc(c3ccccc32)C2=C(C(=O)NC2=O)c2cn(c3ccccc23)CCO1 [Succinate] ... 7.72
